Measured cell viability of individual entries
system: MARIMO; assay: cell viability relative to vehicle control; higher = less cytotoxic; conditions: 10 µM; SRSF2 genotype: SRSF2 wt/wt;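 further: after 48 h exposure read by CellTiter-Glo luminescence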
Structures can show the parent of a compound that is named as a salt.
Report the value in % with no unit label.

1. COc1ccc(Cl)c(Nc2nc3ccccc3nc2NS(=O)(=O)c2cccc(NC(=O)C(C)(C)N)c2)c1 [Pilaralisib (XL147)] :: 66
2. CC(C)(C)C(O)C(=Cc1ccc(Cl)cc1)n1cncn1 (stereo unspecified) [Uniconazole] :: 101
3. CCC/N=C1\S/C(=C\c2ccc(OC[C@H](O)CO)c(Cl)c2)C(=O)N1c1ccccc1C :: 98.3
4. OC(CNCC(O)C1CCc2cc(F)ccc2O1)C1CCc2cc(F)ccc2O1 (stereo unspecified) [Nebivolol HCl] :: 60.5
5. Cc1cc(C(N)=O)ccc1-n1c(CCC(=O)O)ccc1-c1ccc(-n2ccnc2)cc1 :: 98
6. C=C1[C@@H]2CC[C@@H](C2)C1(C)C [Camphene] :: 111
7. O=C(N[C@@H](c1ccccc1)[C@@H](O)C(=O)O)c1ccccc1 [N-Benzoyl-(2R,3S)-3-phenylisoserine] :: 98.4
8. C[C@@H]1C(=O)O[C@H]2C[C@@]34[C@H]5C[C@@H](C(C)(C)C)[C@]36[C@@H](OC(=O)[C@@H]6O)O[C@@]4(C(=O)O5)[C@]21O [Ginkgolide A] :: 106

q: Consider the compound shown here: Cc1cc([C@@H](C)Nc2ccccc2C(=O)O)c2nc(N3CCOCC3)cc(=O)n2c1 What is its recorded cell viability?
a: 66.3

q: Consider the compound shown here: CCN(CC)CCNC(=O)c1c(C)[nH]c(/C=C2\C(=O)Nc3ccc(-c4csc(-c5ccccc5)n4)cc32)c1C [Amcasertib (BBI503)] What is its recorded cell viability?
a: 43.4

====

tested on: MARIMO; assay: cell viability relative to vehicle control; higher = less cytotoxic; conditions: 10 µM; SRSF2 genotype: SRSF2 wt/wt
outcome measure: cell viability

Answered cases to consult:
1. COc1ccc2[nH]c([S+]([O-])Cc3ncc(C)c(OC)c3C)nc2c1 (stereo not given) :: 98.5%
2. CCCCCCC1CCC(=O)O1 (stereo not given) :: 101%
3. Cc1cccc(C#Cc2ccccc2)n1 :: 94.5%
4. C[C@]12CC[C@@H]3c4ccc(O)cc4C[C@@H](CCCCCCCCC[S+]([O-])CCCC(F)(F)C(F)(F)F)[C@H]3[C@@H]1CC[C@@H]2O (stereo not given in full) :: 87%

Next up:
q: Consider the compound shown here: CCc1ccc(-c2nc(CSCC(=O)NCCc3ccccc3)c(C)o2)cc1 What is its recorded cell viability?
a: 99.9%

====

tested on: MOLM14; assay: cell viability relative to vehicle control; higher = less cytotoxic; conditions: 10 µM; SRSF2 genotype: SRSF2 P95H/wt
Measured cell viability of individual entries
Report the value in % with no unit label.

Answered cases to consult:
1) CC(=O)OCC(=O)[C@@]1(O)CC[C@H]2[C@@H]3CCC4=CC(=O)CC[C@]4(C)[C@@]3(F)[C@@H](O)C[C@@]21C [Fludrocortisone acetate] :: 111
2) C/C(=C\CO)CCC[C@H](C)CCC[C@H](C)CCCC(C)C :: 85.5
3) CC(C)=CCC[C@](C)(O[C@@H]1O[C@H](CO)[C@@H](O)[C@H](O)[C@H]1O)[C@H]1CC[C@]2(C)[C@@H]1[C@H](O)C[C@@H]1[C@@]3(C)CC[C@H](O)C(C)(C)[C@@H]3[C@@H](O[C@@H]3O[C@H](CO)[C@@H](O)[C@H](O)[C@H]3O[C@@H]3O[C@@H](C)[C@H](O)[C@@H](O)[C@H]3O)C[C@]12C [Ginsenoside Re] :: 101
4) CC(=O)N1CCN(CCOc2ccc(C3CCN(C4=Nn5c(nnc5C(F)(F)F)CC4)CC3)cc2)CC1 :: 53.5
5) CO[C@H]1C[C@@H]2CC[C@@H](C)[C@@](O)(O2)C(=O)C(=O)N2CCCC[C@H]2C(=O)O[C@H]([C@H](C)C[C@@H]2CC[C@@H](OCCO)[C@H](OC)C2)CC(=O)[C@H](C)/C=C(\C)[C@@H](O)[C@@H](OC)C(=O)[C@H](C)C[C@H](C)/C=C/C=C/C=C/1C [Everolimus (RAD001)] :: 57.4
6) O=C(O)c1ccc2c(c1)C(=O)c1ccccc1C2=O :: 102
7) CCOC(=O)c1cnc2ccc(-c3cncc(NS(=O)(=O)c4ccccc4)c3)cn12 :: 3.14
8) COc1c(O[C@@H]2O[C@H](CO)[C@@H](O)[C@H](O)[C@H]2O)cc2occ(-c3ccc(O)cc3)c(=O)c2c1O :: 91.8
9) COc1ccc2cc(-c3nc(-c4ccc([S+](C)[O-])cc4)[nH]c3-c3ccncc3)ccc2c1 (stereo not drawn) :: 101
10) COc1cc(C(=O)O)ccc1O :: 102

q: Consider the molecule shown here: CNC(=O)c1ccc(N2C(=S)N(c3ccc(C#N)c(C(F)(F)F)c3)C(=O)C2(C)C)cc1F [MDV3100 (Enzalutamide)] What is its recorded cell viability?
a: 89.2

q: Consider the molecule shown here: CC(C)C(C)C(O)C(O)C(C)C1CCC2C3COC(=O)C4CC(O)C(O)CC4(C)C3CCC12C (stereo not drawn) [Brassinolide] What is its recorded cell viability?
a: 95.8

q: Consider the molecule shown here: COc1ccc(F)c(F)c1C(=O)c1cnc(NC2CCN(S(C)(=O)=O)CC2)nc1N What is its recorded cell viability?
a: 1.28

====

tested on: OCI-AML2; test: cell viability relative to vehicle control; higher = less cytotoxic; conditions: 10 µM; SRSF2 genotype: wt/wt
Measured cell viability of individual entries
Report the value in % with no unit label.

Answered cases to consult:
1) CCCc1cc(C)[nH]c(=O)c1CNC(=O)c1cc(-c2ccc(N3CCN(C)CC3)nc2)nc2c1cnn2C(C)C :: 0.41
2) C[n+]1cc2c3c(ccc2c2ccc4cc5c(cc4c21)OCO5)OCO3 [Sanguinarine chloride] :: 0.29
3) CC(=O)OCC(=O)[C@@]1(O)[C@H](C)C[C@H]2[C@@H]3CCC4=CC(=O)C=C[C@]4(C)[C@@]3(F)[C@@H](O)C[C@@]21C [Dexamethasone acetate] :: 109
4) CC1(C)CC[C@]2(C)CC[C@]3(C)C(=CC[C@@H]4[C@@]5(C)CC[C@@H](O)[C@](C)(C(=O)O)[C@@H]5CC[C@]43C)[C@@H]2C1 :: 96.1
5) O=C(/C=C/c1ccc(O)c2c1[C@H](C(=O)O[C@H](Cc1ccc(O)c(O)c1)C(=O)O)[C@@H](c1ccc(O)c(O)c1)O2)O[C@H](Cc1ccc(O)c(O)c1)C(=O)O [Salvianolic acid B] :: 97.8

q: Consider the molecule shown here: Cc1c(F)cc(C(=O)NC2CC2)cc1-c1ccc(C(=O)NCC(C)(C)C)cn1 [Losmapimod] What is its recorded cell viability?
a: 95.5

q: Consider the molecule shown here: N#Cc1ccc(COC[C@H]2O[C@@H](n3c(NCc4ccc(Cl)c(Cl)c4)nc4c(N)ncnc43)[C@H](O)[C@@H]2O)cc1 What is its recorded cell viability?
a: 34.8

q: Consider the molecule shown here: CC(C)(O)CNc1nc(Nc2ccnc(C(F)(F)F)c2)nc(-c2cccc(C(F)(F)F)n2)n1 [AG-221 (Enasidenib)] What is its recorded cell viability?
a: 89.4

q: Consider the molecule shown here: COc1ccc2cc1Oc1ccc(cc1)C[C@H]1c3cc(c(OC)cc3CCN1C)Oc1c(O)c(OC)cc3c1[C@H](C2)N(C)CC3 [Fangchinoline] What is its recorded cell viability?
a: 0.56

q: Consider the molecule shown here: O=c1ccn([C@@H]2O[C@H](CO)[C@@H](O)[C@H]2O)c(=O)[nH]1 [Uridine] What is its recorded cell viability?
a: 92.8

q: Consider the molecule shown here: Cc1ccc2nc(NC(=O)CSc3nc4c(c(=O)n3-c3ccccc3)SCC4)sc2c1 What is its recorded cell viability?
a: 104

====

system: MOLM14; test: cell viability relative to vehicle control; higher = less cytotoxic; details: 10 µM; SRSF2 genotype: SRSF2 P95H/wt
Counter-ions that a name gives are not always drawn.
Label yes when cell viability < 9%; otherwise no.

# count of solved cases: 3
1) CC1(C)S[C@@H]2[C@H](NC(=O)Cc3ccccc3)C(=O)N2[C@H]1C(=O)O.CCN(CC)CCOC(=O)c1ccc(N)cc1 :: no
2) CC[C@@H]1/C=C(\C)C[C@H](C)C[C@H](OC)[C@H]2O[C@@](O)(C(=O)C(=O)N3CCCC[C@H]3C(=O)O[C@H](/C(C)=C/[C@@H]3CC[C@@H](O)[C@H](OC)C3)[C@H](C)[C@@H](O)CC1=O)[C@H](C)C[C@@H]2OC :: no
3) CC(C)n1nccc1-c1ncccc1COc1cccc(O)c1C=O :: no

q: Please let me know if O=[N+]([O-])c1ccc2c(c1)S(=O)(=O)C=C2 shows cell viability below 9%.
a: yes

q: Please let me know if O=C(N[C@H](CO)[C@H](O)c1ccc([N+](=O)[O-])cc1)C(Cl)Cl shows cell viability below 9%.
a: no

q: Please let me know if Cc1ccc(C(=O)Nc2ccc(Oc3cc4cnn(C)c4cc3-c3cn[nH]c3)c(F)c2)c(=O)n1-c1ccc(F)cc1 shows cell viability below 9%.
a: yes

q: Please let me know if O=C(c1ccc(/C=C/c2n[nH]c3ccccc23)cc1)N1CCNCC1 shows cell viability below 9%.
a: yes

q: Please let me know if Clc1cccc(Cl)c1NC1=NCCN1 [Clonidine hydrochloride (Catapres)] shows cell viability below 9%.
a: no

q: Please let me know if C[C@]12CCC3=C4CCC(=O)C=C4CC[C@H]3[C@@H]1CC[C@@]2(O)CC#N shows cell viability below 9%.
a: no

q: Please let me know if O=C(O)C(=O)O.[NH-]C1CCCCC1[NH-].[Pt+2] (stereo unspecified) [Oxaliplatin (Eloxatin)] shows cell viability below 9%.
a: no

q: Please let me know if CCCCc1nc2cc(/C=C/C(=O)NO)ccc2n1CCN(CC)CC shows cell viability below 9%.
a: yes

q: Please let me know if O=C(/C=C\n1cnc(-c2cc(C(F)(F)F)cc(C(F)(F)F)c2)n1)NNc1ccccn1 [Verdinexor (KPT-335)] shows cell viability below 9%.
a: yes

q: Please let me know if O=C(Nc1cc(Cl)cc(Cl)c1O)c1c(O)c(Cl)cc(Cl)c1Cl [Oxyclozanide] shows cell viability below 9%.
a: no

q: Please let me know if c1ccc(CNc2nc(NCc3ccccc3)c3ccccc3n2)cc1 shows cell viability below 9%.
a: yes

q: Please let me know if Cc1nccn1CCC(C(N)=O)(c1ccccc1)c1ccccc1 shows cell viability below 9%.
a: no

q: Please let me know if C[C@]1(O)C[C@@H](c2nc(-c3ccc4ccc(-c5ccccc5)nc4c3)c3c(N)nccn32)C1 shows cell viability below 9%.
a: no

This collection of values is drawn from the supplement of paper PMC10981050.
